- Species: Rattus norvegicus
- Protocol Description: DrugMatrix - Regimen: Daily Repeat
- Format: toxicity, organism-based, Sprague-Dawley
- Design: regimen Daily Repeat, gender Male, age 6-8 weeks
- Condition Set: in vivo, po, 0 mg/kg, 120 h, tissue Plasma, route oral GAVAGE, dose level Control, time 5 day, vehicle .5 % CMC
Quantity Name: ALANINE AMINOTRANSFERASE (u/L)

>>> print(df.to_string())
                                   compound  unit  value_measured
0  CC1(C)[C@H]2CC[C@]1(C)C(=O)C2 [(-)-CAMPHOR]   u/L            46.5
1  C[C@]12CCC(=O)C=C1CC[C@@H]1[C@@H]2C(=O)C[C@@]2(C)[C@H]1CC[C@]2(O)C(=O)CO   u/L           42.17
2                                Brc1ccccc1   u/L           37.17
